Data origin: patent US20130116241A1

Target: human PDE10A (UniProt Q9Y233)
Sequence (Q9Y233 290-1055 limits assumed): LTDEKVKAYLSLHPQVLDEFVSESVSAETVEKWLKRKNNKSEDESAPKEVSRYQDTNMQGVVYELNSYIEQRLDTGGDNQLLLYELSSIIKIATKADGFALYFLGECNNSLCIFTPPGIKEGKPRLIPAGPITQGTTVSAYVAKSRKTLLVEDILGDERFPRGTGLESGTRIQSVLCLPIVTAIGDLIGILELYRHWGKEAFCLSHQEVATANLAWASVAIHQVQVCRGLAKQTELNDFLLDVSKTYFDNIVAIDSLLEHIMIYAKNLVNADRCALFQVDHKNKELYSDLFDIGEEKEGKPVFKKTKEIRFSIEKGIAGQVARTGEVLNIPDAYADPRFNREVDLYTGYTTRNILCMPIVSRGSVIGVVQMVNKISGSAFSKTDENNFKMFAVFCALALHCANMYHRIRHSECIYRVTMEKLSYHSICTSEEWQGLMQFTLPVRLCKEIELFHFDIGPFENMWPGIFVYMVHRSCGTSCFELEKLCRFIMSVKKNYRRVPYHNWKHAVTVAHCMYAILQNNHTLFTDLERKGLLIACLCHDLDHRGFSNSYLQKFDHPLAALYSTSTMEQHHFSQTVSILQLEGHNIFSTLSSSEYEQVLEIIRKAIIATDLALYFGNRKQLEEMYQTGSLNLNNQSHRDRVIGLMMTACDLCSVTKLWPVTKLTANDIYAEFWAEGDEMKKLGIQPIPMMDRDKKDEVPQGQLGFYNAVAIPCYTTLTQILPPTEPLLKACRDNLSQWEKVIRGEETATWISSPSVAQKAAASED
Assay: Measurement of PDE activity (recombinant enzyme, HTRF cAMP kit)
Type: biochemical
Settings: Table 1, substrate 20 nM for PDE10, 60 minutes at 29 C, read-out: IC50
Structures can show the parent of a compound that is named as a salt.
Reported values of IC50 for individual entries

Examples with their reported IC50 follow.
compound	measurement
NCC1CC(Cl)CN1c1cccc2cnn(CCc3cn4ccccc4n3)c(=O)c12 (stereo not shown) [compound 366, trifluoroacetate]	< 100 nM
O=c1c2c(-c3cccc(F)c3)cccc2cnn1CCc1ccc2ccccc2n1	< 100 nM
O=c1c2c(-c3cccc(O)c3)csc2cnn1CCc1ccc2ccccc2n1	100 to 200 nM

IC50 reading for O=c1c2c(NC3COC3)ccnc2cnn1CCc1ccc2ccccc2n1 : < 100 nM

---

Target: human PDE10A (UniProt Q9Y233)
Test: Measurement of PDE activity (recombinant enzyme, HTRF cAMP kit)
Type: biochemical
Conditions: Table 1, substrate 20 nM for PDE10, 60 minutes at 29 C, read-out: IC50
Structures can show the parent of a compound that is named as a salt.
measured_quantity: IC50

Examples with their reported IC50 follow.
molecule	IC50
O=c1c2c(-c3cccnc3)cccc2ccn1C1CC1c1ccc2cc(F)ccc2n1 (centres unmarked) [Example 272]	< 100 nM
O=c1c2c(-c3ccc(F)c(F)c3F)csc2cnn1CCc1ccc2ccccc2n1 [Example 60]	200 to 500 nM
O=c1c2c(-c3ccnc(F)c3)csc2ccn1C1CC1c1ccc2cc(F)ccc2n1 (centres unmarked) [compound 280]	< 100 nM
O=c1c2c(N3CC4COCC4C3)cccc2cnn1CCc1cn2ccccc2n1 (centres unmarked) [Example 176, hydrochloride]	< 100 nM
O=c1c2c(N3CCC(O)CC3)cccc2ccn1[C@@H]1C[C@H]1c1ccc2ccccc2n1 (relative stereo) [Example 253]	< 100 nM

IC50 reading for Cc1n[nH]c(C)c1-c1cccc2cnn(CCc3ccc4ccccc4n3)c(=O)c12 [Example 121] : 100 to 200 nM

IC50 reading for O=c1c2c(N3CC[C@@H](O)C3)cccc2ccn1C1CC1c1ccc2ccccc2n1 (some centres unmarked) [Example 250] : 100 to 200 nM

IC50 reading for CN(C)C(=O)c1cccc(-c2csc3cnn(CCc4ccc5ccccc5n4)c(=O)c23)c1 [Example 32] : 200 to 500 nM

---

Reported values of IC50 for individual entries
Biological target: human PDE10A (UniProt Q9Y233)
Test: Measurement of PDE activity (recombinant enzyme, HTRF cAMP kit)
Type: biochemical
Conditions: Table 1, substrate 20 nM for PDE10, 60 minutes at 29 C, read-out: IC50

compound	IC50
O=c1c2c(-c3ccncc3)csc2cnn1C1CC1c1ccc2ccccc2n1 (stereo not drawn)	< 100 nM
O=c1c2c(-c3ccc(O)cc3)cccc2cnn1CCc1ccc2ccccc2n1	< 100 nM
O=c1c2c(-c3ccncc3)csc2ccn1C1CC1c1ccc2ccccc2n1 (stereo not drawn) [compound 293]	< 100 nM
COc1ccc(-c2cccc3cnn(CCc4ccc5ccccc5n4)c(=O)c23)cc1OC	100 to 200 nM
O=c1c2c(NC3COC3)cccc2cnn1CCc1cn2ccccc2n1	< 100 nM

IC50 reading for COc1ccc(-c2cccc3cnn(CCc4ccc5ccccc5n4)c(=O)c23)cc1 : 100 to 200 nM

IC50 reading for COc1ccc(-c2csc3cnn(CCc4ccc5ccccc5n4)c(=O)c23)cc1OC : 200 to 500 nM

IC50 reading for O=c1c2c(C3CCOCC3)cccc2cnn1CCc1cn2ccccc2n1 : < 100 nM

IC50 reading for Cc1ccccc1-c1csc2cnn(CCc3ccc4ccccc4n3)c(=O)c12 : 200 to 500 nM
